# Tested on: AXL
# CONDITION SUMMARY: concentration: 1 μM, replicates: in singlicate; n = 1
Entries and their %Inh values follow.
State just the number; it will be interpreted in %.

Below: 5 compounds and their reported %Inh.
{"COMPOUND": "CNC(=O)c1ccc(C)c(-n2c(C)cc(OCc3ccc(F)cc3F)c(Br)c2=O)c1", "TESTED ON": "AXL", "%Inh, %": 0}
{"COMPOUND": "Cc1ccc(NC(=O)c2ccc(Cl)cc2)cc1-c1ccc(C(=O)Nc2ccncc2)cc1", "TESTED ON": "AXL", "%Inh, %": 0}
{"COMPOUND": "COC(=O)c1cccc(NC(=O)NC2CCN(c3ccnc(Nc4ccc(F)cc4)n3)C2)c1 (centres unmarked)", "TESTED ON": "AXL", "%Inh, %": 6}
{"COMPOUND": "COc1ccc(Nc2nccc(-c3ccc(NC(=O)c4cc5cc(F)ccc5[nH]4)cc3)n2)cc1", "TESTED ON": "AXL", "%Inh, %": 0}
{"COMPOUND": "O=C1NC(=O)C(c2ccc(Cl)cc2)=C1Nc1cccc(Cl)c1", "TESTED ON": "AXL", "%Inh, %": 20}

Notebook: pull reported %Inh for AXL, entry Cn1cncc1-c1cc2c(Nc3ccc(OCc4ccccc4)cc3)ncnc2cn1
0

Form entry - test system: AXL; read-out: %Inh; compound: Nc1nccc(-c2c(-c3ccc(F)cc3)ncn2C2CCN(Cc3ccccc3)CC2)n1
9

Please state recorded %Inh (tested on AXL) of COc1cccc(CNC(=O)NC2CCN(c3ccnc(Nc4ccc(F)cc4)n3)C2)c1 (centres unmarked);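 further: KINOMEscan kinase panel screen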
6
